Protocol Description: Plasma protein binding (equilibrium dialysis), Method B5
Assay type: in vitro ADME
Experimental Setup: 60 min at 37° C., typically 10 μM
Property Measured: Binding (%), Human Plasma Protein Binding
Your answer should be a plain number; it is taken to be in %.

Task item: Which Binding (%), Human Plasma Protein Binding reading was recorded for the compound CCC1CCc2ccc(F)cc2OCCNC(C2(C)CC2)C(=O)N(C)C(C(C)O)C(=O)NC(Cc2c[nH]c3ccccc23)C(=O)N1 (stereo not shown) ?
Reply: 99.5

Task item: Requested read-out: Binding (%), Human Plasma Protein Binding. Entry: CC(C)[C@@H]1NCCOc2ccccc2C#C[C@@H](C)NC(=O)[C@@H](Cc2ccc(F)cc2)NC(=O)[C@H](C(C)O)N(C)C1=O (stereo partly shown)
Reply: 97.4

Task item: Could you tell me which Binding (%), Human Plasma Protein Binding is on file for CC[C@@H]1C#Cc2c(F)cccc2OCCN[C@@H](C(C)C)C(=O)N(C)[C@@H](C(C)O)C(=O)N[C@H](Cc2c[nH]c3ccccc23)C(=O)N1 (stereo partly shown) ?
Reply: 99.8

Task item: Please report the recorded Binding (%), Human Plasma Protein Binding for CC[C@@H]1C#Cc2ccc(F)cc2OCCN[C@@H](C(C)C)C(=O)N(C)[C@@H](C(C)O)C(=O)N[C@H](Cc2c[nH]c3ccccc23)C(=O)N1 (stereo partly shown) .
Reply: 99.3

Task item: Look up Binding (%), Human Plasma Protein Binding for this compound: CC[C@@H]1CCc2ccc(F)cc2OCCN[C@@H](C(C)C)C(=O)N(C)[C@@H](C(C)O)C(=O)N[C@H](Cc2ccc(O)cc2)C(=O)N1 (stereo partly shown)
Reply: 97.4

Task item: # lookup: Binding (%), Human Plasma Protein Binding of CC(C)C1NCCOc2ccccc2C#CCNC(=O)C(Cc2c[nH]c3ccccc23)NC(=O)C(C(C)O)N(C)C1=O (stereo not shown)
Reply: 98.2

Task item: Binding (%), Human Plasma Protein Binding for CC(C)[C@@H]1NCCOc2ccccc2C2CCC(C2)NC(=O)[C@@H](Cc2c[nH]c3ccccc23)NC(=O)[C@H](C(C)O)N(C)C1=O (stereo partly shown) ?
Reply: 92.1

Task item: Using the record for CC[C@@H]1C#Cc2ccccc2OCCN[C@@H](C(C)C)C(=O)N(C)[C@@H](C(C)O)C(=O)N[C@H](Cc2c[nH]c3ccccc23)C(=O)N1 (stereo partly shown) , report its Binding (%), Human Plasma Protein Binding.
Reply: 99.4

Task item: Entry under review: CC[C@@H]1C#Cc2ccc(F)cc2O[C@H](C)CN[C@@H](C2(C)CC2)C(=O)N(C)[C@@H](C(C)O)C(=O)N[C@H](Cc2c[nH]c3ccccc23)C(=O)N1 (stereo partly shown) . Reported Binding (%), Human Plasma Protein Binding?
Reply: 99.6

Task item: Which measured Binding (%), Human Plasma Protein Binding value corresponds to CC(C)[C@@H]1NCC2CCc3cccc(c3O2)CCCNC(=O)[C@@H](Cc2ccccc2)NC(=O)[C@H](C(C)O)N(C)C1=O (stereo partly shown) ?
Reply: 95.8

---

Exercise: state measured pIC50 for each of the compounds provided.
Subject Of Test: CYP2D6 (Homo sapiens, UniProt P10635)
Sequence (P10635 whole entry): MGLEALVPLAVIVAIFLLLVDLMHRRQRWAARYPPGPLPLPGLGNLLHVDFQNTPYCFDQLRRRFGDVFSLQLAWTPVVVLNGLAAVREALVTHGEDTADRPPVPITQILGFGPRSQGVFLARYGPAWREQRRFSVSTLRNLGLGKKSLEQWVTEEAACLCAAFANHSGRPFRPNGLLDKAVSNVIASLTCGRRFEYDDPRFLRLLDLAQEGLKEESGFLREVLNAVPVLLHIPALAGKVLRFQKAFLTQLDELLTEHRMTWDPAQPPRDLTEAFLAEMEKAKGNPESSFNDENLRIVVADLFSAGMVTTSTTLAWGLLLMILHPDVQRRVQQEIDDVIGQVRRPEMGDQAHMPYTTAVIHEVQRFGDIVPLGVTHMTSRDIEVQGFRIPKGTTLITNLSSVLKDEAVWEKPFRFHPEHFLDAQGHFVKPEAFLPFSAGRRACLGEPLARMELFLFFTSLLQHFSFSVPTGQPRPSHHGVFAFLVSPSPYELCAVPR
Protocol Description: biochemical
Units for pIC50: none; it is -log10 of a concentration expressed in mol/L.

Task item: If you can, please state the reported pIC50 value of CC[C@@H]1CCc2ccc(F)cc2OCCN[C@@H](C(C)C)C(=O)N(C)[C@@H](C(C)O)C(=O)N[C@H](Cc2c[nH]c3ccccc23)C(=O)N1 (stereo partly drawn) .
Reply: 5.68

Task item: pIC50 for CC(C)[C@@H]1NCCOc2ccccc2C[C@H](O)[C@@H](C)NC(=O)[C@@H](Cc2cccc(F)c2)NC(=O)[C@H](C(C)O)N(C)C1=O (stereo partly drawn) ?
Reply: 4.25

Task item: I have this compound here, CC(C)[C@@H]1NCCOc2cccc(F)c2C#CCNC(=O)[C@@H](Cc2ccccc2)NC(=O)[C@H](C(C)O)N(C)C1=O (stereo partly drawn) , and I need its recorded pIC50.
Reply: 4.59

---

Subject Of Test: GHS-R1a receptor (HEK293 cells expressing GHS-R1a receptor) (Homo sapiens, UniProt Q92847)
Construct: host or cells: HEK293
Protocol Description: Fluorescence functional assay (ghrelin receptor), Method B2, agonist and antagonist mode
Format: cell-based
Experimental Setup: functional activity as an antagonist at the ghrelin receptor, Methods B2 and B3
Property Measured: Antagonist Activity

{"Molecule": "CC(O)[C@H]1C(=O)N[C@H](Cc2ccccc2)C(=O)NCC#Cc2c(F)cccc2OCCN[C@@H](C2(C)CC2)C(=O)N1C (stereo partly drawn)", "Result": "A (A <1 nM)"}
{"Molecule": "CCC1CCc2ccc(F)cc2OCCNC(C(C)C)C(=O)N(C)C(C(C)O)C(=O)NC(Cc2cn(S(=O)(=O)c3ccc(C)cc3)c3ccccc23)C(=O)N1 (stereo not drawn)", "Result": "C (C = 10-100 nM)"}
{"Molecule": "CC(C)[C@@H]1NCCOc2ccccc2CC[C@@H](C)NC(=O)[C@@H](Cc2c[nH]c3ccccc23)NC(=O)[C@H](C(C)O)N(C)C1=O (stereo partly drawn)", "Result": "B (B = 1-10 nM)"}
{"Molecule": "CCC(C)C1NCCOc2ccccc2CCCNC(=O)C(Cc2ccc(Cl)cc2)NC(=O)C(C(C)O)N(C)C1=O (stereo not drawn)", "Result": "C (C = 10-100 nM)"}
{"Molecule": "CC(C)[C@@H]1NCCOc2ccc(F)cc2CC[C@@H](C)NC(=O)[C@@H](Cc2ccccc2)NC(=O)[C@H](C(C)O)N(C)C1=O (stereo partly drawn)", "Result": "B (B = 1-10 nM)"}

Task item: Need Antagonist Activity, item CC(C)[C@@H]1NCCOc2cc(F)ccc2CC[C@@H](C)NC(=O)[C@@H](Cc2cccc(F)c2)NC(=O)[C@H](C(C)O)N(C)C1=O (stereo partly drawn)
Reply: A (A <1 nM)

---

Subject Of Test: ghrelin receptor (HEK-GHSR1 stable cells) (Homo sapiens)
Construct: expressed in transfected cells
Sequence (Q92847 whole entry): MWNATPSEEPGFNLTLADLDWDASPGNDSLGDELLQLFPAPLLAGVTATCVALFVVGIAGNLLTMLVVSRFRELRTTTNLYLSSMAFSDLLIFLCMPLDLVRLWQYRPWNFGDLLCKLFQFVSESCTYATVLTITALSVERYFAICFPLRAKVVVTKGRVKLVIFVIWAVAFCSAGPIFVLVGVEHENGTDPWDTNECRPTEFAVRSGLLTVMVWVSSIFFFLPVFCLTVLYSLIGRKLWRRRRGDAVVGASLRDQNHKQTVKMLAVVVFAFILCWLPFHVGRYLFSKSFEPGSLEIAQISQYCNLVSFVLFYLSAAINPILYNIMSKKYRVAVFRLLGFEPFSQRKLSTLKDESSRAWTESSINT
Protocol Description: Ghrelin receptor inverse agonist assay (HTRF IP-one), Method B4
Format: cell-based
Experimental Setup: inverse agonist at the ghrelin receptor, Method B4
Property Measured: IC50

Task item: For the compound shown here, CC[C@@H]1CCc2ccc(F)cc2OCCN[C@@H](C(C)C)C(=O)N(C)[C@@H](C(C)O)C(=O)N[C@H](Cc2ccc(O)cc2)C(=O)N1 (stereo partly shown) , give the reported IC50.
Reply: 100 to 500 nM

Task item: So what does the record say about IC50 for CCC(C)C1NCCOc2ccccc2C=CCNC(=O)C(Cc2ccccc2Cl)NC(=O)C(C(C)O)N(C)C1=O (stereo not shown) ?
Reply: 10 to 50 nM

Task item: Fill in: IC50 of CC(C)[C@@H]1NCCOc2cc(F)ccc2CC[C@@H](C)NC(=O)[C@@H](Cc2ccc(Cl)cc2)NC(=O)[C@H](C(C)O)N(C)C1=O (stereo partly shown) is ___
Reply: 10 to 50 nM

Task item: Look up IC50: CC(C)C1NCCOc2cc(F)ccc2C=CCNC(=O)C(Cc2ccccc2)NC(=O)C(C(C)O)N(C)C1=O (stereo not shown)
Reply: 50 to 100 nM

Task item: Please report the recorded IC50 for CCC1CCc2ccc(F)cc2OCCNC(C(C)C)C(=O)N(C)C(C(C)O)C(=O)NC(Cc2cn(S(=O)(=O)c3ccc(C)cc3)c3ccccc23)C(=O)N1 (stereo not shown) .
Reply: 50 to 100 nM

Task item: Quick one: IC50 for CC(C)C1NCCOc2ccccc2C#CCNC(=O)C(Cc2cccc(F)c2)NC(=O)C(C(C)O)N(C)C1=O (stereo not shown) ?
Reply: 100 to 500 nM

Task item: // query IC50 value for entry CC(O)[C@H]1C(=O)N[C@H](Cc2ccc(F)cc2)C(=O)NCC#Cc2ccccc2OCCN[C@@H](C2(C)CC2)C(=O)N1C (stereo partly shown)
Reply: 10 to 50 nM

Task item: Recorded IC50 for CC[C@@H]1C#Cc2ccccc2OCCN[C@@H](C(C)C)C(=O)N(C)[C@@H](C(C)O)C(=O)N[C@H](Cc2c[nH]c3ccccc23)C(=O)N1 (stereo partly shown) , please?
Reply: 50 to 100 nM

Task item: Param item = CCC1CCc2ccc(F)cc2OCCNC(CC)C(=O)N(C)C(C(C)O)C(=O)NC(Cc2ccccc2)C(=O)N1 (stereo not shown) ; retrieve measured IC50.
Reply: 100 to 500 nM

Task item: Fill in the blank: the reported IC50 of CCC1CCc2ccc(F)cc2OC(C)CNC(C2(C)CC2)C(=O)N(C)C(C(C)O)C(=O)NC(Cc2ccccc2)C(=O)N1 (stereo not shown) is ____.
Reply: 100 to 500 nM

Task item: Quick one: IC50 of CCC1CCc2ccc(F)cc2OCCNC(C2(C)CC2)C(=O)N(C)C(C(C)O)C(=O)NC(Cc2c[nH]c3ccccc23)C(=O)N1 (stereo not shown) ?
Reply: 50 to 100 nM

Task item: Request the reported IC50 associated with CC(C)[C@@H]1NCC2CCc3cccc(c3O2)CCCNC(=O)[C@@H](Cc2ccccc2)NC(=O)[C@H](C(C)O)N(C)C1=O (stereo partly shown)
Reply: 50 to 100 nM

Task item: What measured IC50 goes with CC[C@@H]1CCc2ccc(F)cc2OCCN[C@@H](C2(C)CC2)C(=O)N(C)[C@@H](C(C)O)C(=O)N[C@H](Cc2cccc(F)c2)C(=O)N1 (stereo partly shown) ?
Reply: 50 to 100 nM

Task item: Would you kindly share the measured IC50 for CC(O)[C@H]1C(=O)N[C@H](Cc2ccc(Cl)cc2)C(=O)NC/C=C/c2ccccc2OCCN[C@@H](C2CCCCC2)C(=O)N1C (stereo partly shown) ?
Reply: 100 to 500 nM

Task item: Record request: IC50 value, item CC[C@@H]1C#Cc2c(F)cccc2OCCN[C@@H](C(C)C)C(=O)N(C)[C@@H](C(C)O)C(=O)N[C@H](Cc2c[nH]c3ccccc23)C(=O)N1 (stereo partly shown)
Reply: 50 to 100 nM

Task item: So what's the measured IC50 for this one? CC(O)[C@H]1C(=O)N[C@H](Cc2ccc(Cl)cc2)C(=O)NC/C=C/c2ccccc2OCCN[C@@H](C(C)(C)C)C(=O)N1C (stereo partly shown)
Reply: 10 to 50 nM

Task item: What IC50 value was documented for this compound, Cc1ccc2[nH]cc(CC3NC(=O)C(C(C)O)N(C)C(=O)C(C(C)C)NCCOc4ccccc4CCC(C)NC3=O)c2c1 (stereo not shown) ?
Reply: 10 to 50 nM

Task item: Which value of IC50 has been reported for CC[C@@H]1C#Cc2ccc(F)cc2O[C@H](C)CN[C@@H](C2(C)CC2)C(=O)N(C)[C@@H](C(C)O)C(=O)N[C@H](Cc2c[nH]c3ccccc23)C(=O)N1 (stereo partly shown) in the records?
Reply: 100 to 500 nM

Task item: Recorded IC50 of CCC(C)C1NCCOc2ccccc2CC(C)CNC(=O)C(Cc2ccccc2)NC(=O)C(C(C)O)N(C)C1=O (mixture of isomers) , please.
Reply: 100 to 500 nM

Task item: Item under review: CCC(C)C1NCCOc2ccccc2C=CCNC(=O)C(Cc2ccc(Cl)cc2)NC(=O)C(C(C)O)N(C)C1=O (stereo not shown) . Reported IC50?
Reply: 100 to 500 nM

Task item: Suppose we examine the compound CCC(C)C1NCCOc2cccc3c2CC(CC3)CNC(=O)C(Cc2ccccc2)NC(=O)C(C(C)O)N(C)C1=O (stereo not shown) ; what IC50 value has been reported?
Reply: 100 to 500 nM

Task item: Need IC50, item CC[C@@H]1NCCOc2ccccc2/C=C/CNC(=O)[C@@H](Cc2ccc(Cl)cc2)NC(=O)[C@H](C(C)O)N(C)C1=O (stereo partly shown)
Reply: 100 to 500 nM

Task item: Which measured IC50 value corresponds to CC(O)[C@H]1C(=O)N[C@H](Cc2c[nH]c3ccccc23)C(=O)N[C@H](C)CCc2ccccc2OCCN[C@@H](C(C)(C)C)C(=O)N1C (stereo partly shown) ?
Reply: 100 to 500 nM

Task item: Field request: IC50 | item: CC1CCc2ccccc2OCCNC(C(C)(C)C)C(=O)N(C)C(C(C)O)C(=O)NC(Cc2cccc(F)c2)C(=O)N1 (stereo not shown)
Reply: 10 to 50 nM

Task item: I have this compound here, CC(O)[C@H]1C(=O)N[C@H](Cc2ccc(F)cc2)C(=O)NCC#Cc2c(F)cccc2OCCN[C@@H](C2(C)CC2)C(=O)N1C (stereo partly shown) , and I need its recorded IC50.
Reply: 10 to 50 nM

Hello, the source for this data is patent US20110105389A1, in case you need it.
